This collection of values is drawn from ChEMBL document CHEMBL4477225.

target of assay: UniProt:P08684
Sequence (P08684 whole entry): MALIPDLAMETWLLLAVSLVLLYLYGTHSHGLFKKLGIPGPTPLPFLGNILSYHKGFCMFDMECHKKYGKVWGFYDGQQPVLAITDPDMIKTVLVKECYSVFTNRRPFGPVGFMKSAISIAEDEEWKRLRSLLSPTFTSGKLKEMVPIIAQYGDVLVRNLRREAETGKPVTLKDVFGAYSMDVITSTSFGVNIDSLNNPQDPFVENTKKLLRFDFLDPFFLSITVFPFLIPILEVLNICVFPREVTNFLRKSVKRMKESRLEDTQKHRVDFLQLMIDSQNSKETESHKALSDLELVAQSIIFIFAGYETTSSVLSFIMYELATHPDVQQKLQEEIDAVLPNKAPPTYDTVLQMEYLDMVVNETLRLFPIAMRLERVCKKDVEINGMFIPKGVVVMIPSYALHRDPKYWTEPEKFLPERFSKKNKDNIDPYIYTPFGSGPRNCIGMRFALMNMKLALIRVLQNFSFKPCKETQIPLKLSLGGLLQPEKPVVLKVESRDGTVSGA
test method notes: Drug activation in human Hep3B cells assessed as human CYP3A4-mediated drug metabolism-induced cytotoxicity measured as decrease in cell viability at 300 uM pre-incubated with BSO for 18 hrs followed by incubation with compound for 3 hrs in presence of NADPH measured after 24 hrs in absence of compound, CYP3A4 and NADPH by cell titer-glo luminescence assay relative to BSO alone
measurement setup: recombinant enzyme
Could you please report measured FC for the items listed next?
I'd appreciate a reply containing only the number, no unit.

Return value of FC for input `CCCCCCCCCCC[C@@H](C[C@@H]1OC(=O)[C@H]1CCCCCC)OC(=O)[C@H](CC(C)C)NC=O` , no commentary. 1

Tell us which FC value is on record for `Nc1ccc(C(=O)O)c(O)c1` 1

Respond only with FC recorded for `CNC(=C[N+](=O)[O-])NCCSCc1csc(CN(C)C)n1` 1

Supply measured FC of COCCc1ccc(OCC(O)CNC(C)C)cc1 (configuration not stated) in your reply. 1

Supply reported FC belonging to this molecule: `CC1(C)S[C@@H]2[C@H](NC(=O)[C@H](N)c3ccc(O)cc3)C(=O)N2[C@H]1C(=O)O` 1

Specify reported FC for the molecule shown: `COC(c1ccccc1)(c1ccccc1)[C@H](Oc1nc(C)cc(C)n1)C(=O)O` 1

Specify measured FC for `CCOC(=O)C1=C[C@@H](OC(CC)CC)[C@H](NC(C)=O)[C@@H](N)C1` . 1

Specify reported FC for the molecule shown: CC(=O)CC(c1ccccc1)c1c(O)c2ccccc2oc1=O (configuration not stated) 1

Using known records, supply FC for Cc1oncc1C(=O)Nc1ccc(C(F)(F)F)cc1 [LEFLUNOMIDE] 1

Supply reported FC belonging to this molecule: `C[N+](C)(C)CC(=O)O` 1

Please indicate FC recorded for `Cc1cn([C@H]2C=C[C@@H](CO)O2)c(=O)[nH]c1=O` 1

Answer with the recorded FC for the molecule listed here: NC(=O)c1cnccn1 [PYRAZINAMIDE] 1

Tell me measured FC for `CC(=O)N(O)CCCCCNC(=O)CCC(=O)N(O)CCCCCNC(=O)CCC(=O)N(O)CCCCCN` please. 1

Give the reported value of FC for this record: CC(C)NCC(O)c1cc(O)cc(O)c1 (configuration not stated) 1

Return reported FC. Input molecule: `Cc1ccnc2c1NC(=O)c1cccnc1N2C1CC1` 1

Give me measured FC, please, for this molecule: `NC[C@H]1O[C@H](O[C@H]2[C@H](O)[C@@H](O[C@H]3O[C@H](CO)[C@@H](O)[C@H](N)[C@H]3O)[C@H](N)C[C@@H]2N)[C@H](O)[C@@H](O)[C@@H]1O` 1

State its FC for this molecule: `Nc1c(CC(=O)O)cccc1C(=O)c1ccc(Br)cc1` 1

Provide measured FC value, entry: CCCNC(=O)NS(=O)(=O)c1ccc(Cl)cc1 [CHLORPROPAMIDE] 1

Could you please provide reported FC for `CC[C@H](C)C(=O)O[C@H]1C[C@H](O)C=C2C=C[C@H](C)[C@H](CC[C@@H](O)C[C@@H](O)CC(=O)O)[C@H]21` ? Thanks! 1

Please report the measured FC for `Cc1ccc(C(=O)c2cc(O)c(O)c([N+](=O)[O-])c2)cc1` 1

# return recorded FC for entry `CCCC(CCC)C(=O)O` 1

Please give measured FC of the following entry: CC(NC(C)(C)C)C(=O)c1cccc(Cl)c1 (configuration not stated) 1

Read the entry `Nc1ccn([C@H]2CC[C@@H](CO)O2)c(=O)n1` and write its reported FC. 1

Specify measured FC for `O=C(O)CCCCCCNC1c2ccccc2CCc2ccccc21` . 1

Please give the documented FC of CCc1cccc2c3c([nH]c12)C(CC)(CC(=O)O)OCC3 (configuration not stated) 1

Look up and report measured FC for this entry: `Oc1ncnc2[nH]ncc12` 1

Entry `CC(=O)Oc1ccccc1C(=O)O` needs its FC filled in; supply it. 1

Write down FC measured for item C[C@@](Cc1ccc(O)c(O)c1)(NN)C(=O)O [CARBIDOPA ANHYDROUS] 0.6

Given the molecule `Nc1nc(O)c2ncn(COC(CO)CO)c2n1` , write its reported FC. 1

Return value of FC for input CN1Cc2c(N)cccc2C(c2ccccc2)C1 (configuration not stated) , no commentary. 0.3

Output FC of `CN(C)c1ccc(O)c2c1C[C@H]1C[C@H]3[C@H](N(C)C)C(O)=C(C(N)=O)C(=O)[C@@]3(O)C(O)=C1C2=O` 1

Quick one: give measured FC for `[H]/N=C(/N)N[C@H]1[C@H](O)[C@@H](O)[C@H](O[C@@H]2O[C@@H](C)[C@](O)(C=O)[C@H]2O[C@@H]2O[C@@H](CO)[C@H](O)[C@@H](O)[C@@H]2NC)[C@@H](N/C(N)=N\[H])[C@@H]1O` 1

Check the records and state FC for `Nc1nc2c(ncn2COCCO)c(=O)[nH]1` 1

Identify the reported FC for the following entry. `O=C(O)COc1ccc(C(=O)c2cccs2)c(Cl)c1Cl` 1

Give me measured FC, please, for this molecule: `Cc1cn([C@H]2C[C@H](N=[N+]=[N-])[C@@H](CO)O2)c(=O)[nH]c1=O` 1

Fill in reported FC for this entry: `C[C@H](CS)C(=O)N1CCC[C@H]1C(=O)O` 1

Note FC for the molecule shown: Sc1ncnc2nc[nH]c12 [MERCAPTOPURINE ANHYDROUS] 1
